Source of measurements: PubChem BioAssay AID1963844

The entries below are paired with their reported viability, T/C.
Tested on: 422866-222-R5-J1-PDC complex spheroid viability;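 note: spheroids exposed to compounds for one week before readout; percent of DMSO vehicle wells luminescence so 100% = untreated viability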
assay_method_text: Anticancer human tumor 422866-222-R5-J1-PDC patient-derived pancreatic adenocarcinoma cell line growth inhibition [POLQ]
run_parameters: second compound 0.1 µM; first compound 3.16 µM; stronger effect = lower value
measured_metric: viability, T/C (%)

O=C(Nc1ccc(O)c(NS(=O)(=O)c2ccc(F)cc2)c1)c1ccc(-c2ccccc2)cc1 + Nc1ccc(C#CCN(C(=O)Cc2ncc(C(F)(F)F)cc2C(F)(F)F)c2ccc(F)cc2)nn1: 99.8
C=CC(=O)N1CCN(c2nc(=O)n(-c3c(C)ccnc3C(C)C)c3nc(-c4c(O)cccc4F)c(F)cc23)C(C)C1 (stereo not given) + COC1C(OC(N)=O)C(O)C(Oc2ccc3c(O)c(NC(=O)c4ccc(O)c(CC=C(C)C)c4)c(=O)oc3c2C)OC1(C)C: 23.2
CC(C)n1c(=O)n(C)c2cnc3cc(F)c(-c4ccc(OCCCN5CCCCC5)nc4)cc3c21 + Nc1ccc(C#CCN(C(=O)Cc2ncc(C(F)(F)F)cc2C(F)(F)F)c2ccc(F)cc2)nn1: 82.8
CCCS(=O)(=O)Nc1ccc(F)c(C(=O)c2c[nH]c3ncc(-c4ccc(Cl)cc4)cc23)c1F + COC1C(OC(N)=O)C(O)C(Oc2ccc3c(O)c(NC(=O)c4ccc(O)c(CC=C(C)C)c4)c(=O)oc3c2C)OC1(C)C: 198
CC1COCCN1c1cc(-c2ccnn2C)c2ccnc(-c3ccn[nH]3)c2n1 (stereo not given) + COC1C(OC(N)=O)C(O)C(Oc2ccc3c(O)c(NC(=O)c4ccc(O)c(CC=C(C)C)c4)c(=O)oc3c2C)OC1(C)C: 87.3
COc1cc(C2c3cc4c(cc3C(OC3OC5COC(C)OC5C(O)C3O)C3COC(=O)C23)OCO4)cc(OC)c1O (stereo not given) + COC1C(OC(N)=O)C(O)C(Oc2ccc3c(O)c(NC(=O)c4ccc(O)c(CC=C(C)C)c4)c(=O)oc3c2C)OC1(C)C: 38.2
O=C(Nc1ccc(O)c(NS(=O)(=O)c2ccc(F)cc2)c1)c1ccc(-c2ccccc2)cc1 + COC1C(OC(N)=O)C(O)C(Oc2ccc3c(O)c(NC(=O)c4ccc(O)c(CC=C(C)C)c4)c(=O)oc3c2C)OC1(C)C: 88.8
COc1cccc2c1C(=O)c1c(O)c3c(c(O)c1C2=O)CC(O)(C(=O)CO)CC3OC1CC(N)C(O)C(C)O1 (stereo not given) + COC1C(OC(N)=O)C(O)C(Oc2ccc3c(O)c(NC(=O)c4ccc(O)c(CC=C(C)C)c4)c(=O)oc3c2C)OC1(C)C: 28.9
O=c1[nH]cc(F)c(=O)[nH]1 + Nc1ccc(C#CCN(C(=O)Cc2ncc(C(F)(F)F)cc2C(F)(F)F)c2ccc(F)cc2)nn1: 83.2
CCCS(=O)(=O)Nc1ccc(F)c(C(=O)c2c[nH]c3ncc(-c4ccc(Cl)cc4)cc23)c1F + Nc1ccc(C#CCN(C(=O)Cc2ncc(C(F)(F)F)cc2C(F)(F)F)c2ccc(F)cc2)nn1: 173
O=C(c1cc(Cc2n[nH]c(=O)c3ccccc23)ccc1F)N1CCN(C(=O)C2CC2)CC1 + COC1C(OC(N)=O)C(O)C(Oc2ccc3c(O)c(NC(=O)c4ccc(O)c(CC=C(C)C)c4)c(=O)oc3c2C)OC1(C)C: 36.4
CCc1cc2c(N3CCc4c(cc(Cn5ccnc5)cc4-c4cn(C)nc4C(F)(F)F)C3=O)ccnc2c(OC)n1 + Cc1cccc(N(C)C(=O)C2C(O)CCN2c2nc(C)cc(C(F)(F)F)c2C#N)c1: 91.4
CCc1cc2c(N3CCc4c(cc(Cn5ccnc5)cc4-c4cn(C)nc4C(F)(F)F)C3=O)cc(C)nc2c(OC)n1 + COC1C(OC(N)=O)C(O)C(Oc2ccc3c(O)c(NC(=O)c4ccc(O)c(CC=C(C)C)c4)c(=O)oc3c2C)OC1(C)C: 110
C#Cc1c(F)ccc2cc(O)cc(-c3ncc4c(N5CC6CCC(C5)N6)nc(OCC56CCCN5CC(F)C6)nc4c3F)c12 (stereo not given) + Cc1cccc(N(C)C(=O)C2C(O)CCN2c2nc(C)cc(C(F)(F)F)c2C#N)c1: 33.3
CCc1cc2c(N3CCc4c(cc(Cn5ccnc5)cc4-c4cn(C)nc4C(F)(F)F)C3=O)ccnc2c(OC)n1 + COC1C(OC(N)=O)C(O)C(Oc2ccc3c(O)c(NC(=O)c4ccc(O)c(CC=C(C)C)c4)c(=O)oc3c2C)OC1(C)C: 110
